Biological target: human RORγt LBD (Homo sapiens, UniProt P51449)
Construct: expressed in transfected cells
Assay: RORγt reporter assay (GAL4-RORγt LBD luciferase in HEK293T cells)
Format: cell-based
Conditions: HEK-293T, read-out: RORγt reporter Assay, % inhibition @ 6 μM, HEK293T cells, 6 μM compound
Measured Attribute: inhibition at 6 µM (%)

Some entries whose results are on file:
1) CCN(CC)c1nc2ccc(C(O)(c3cccnc3)c3cccc(Cl)c3)cc2c(OC)c1-c1ccccc1 (stereo not drawn) [Example 106] ... 75
2) Cn1cncc1C(O)(c1ccc2nc(C(F)(F)F)c(-c3ccccc3)c(C#N)c2c1)c1ccccn1 (stereo not drawn) [Example 118] ... 94
3) Cc1nc2cc(C(O)(c3ccc4nc(Cl)c(-c5ccccc5)c(Cl)c4c3)c3cncn3C)ccc2o1 (stereo not drawn) [Example 146] ... 112

[I] COc1cc(C(O)(c2ccc3nc(Cl)c(-c4ccccc4)c(Cl)c3c2)c2cncn2C)ccn1 (stereo not drawn) [Example 68]
[II] CN1CCN(c2nc3ccc(C(O)(c4ccncc4)c4cncn4C)cc3c(Cl)c2-c2ccccc2)CC1 (stereo not drawn) [Example 19]
Would you let me know which has the greater inhibition at 6 µM value, I or II ? # reply format: chosen label
I

----------
Target: human RORγt ligand binding domain (RORγt LBD) (Homo sapiens)
Construct: His-tag (N); TurboTEV protease cleavage site (ENLYFQG) (N)
Sequence (P51449 with tags, fused parts or gaps): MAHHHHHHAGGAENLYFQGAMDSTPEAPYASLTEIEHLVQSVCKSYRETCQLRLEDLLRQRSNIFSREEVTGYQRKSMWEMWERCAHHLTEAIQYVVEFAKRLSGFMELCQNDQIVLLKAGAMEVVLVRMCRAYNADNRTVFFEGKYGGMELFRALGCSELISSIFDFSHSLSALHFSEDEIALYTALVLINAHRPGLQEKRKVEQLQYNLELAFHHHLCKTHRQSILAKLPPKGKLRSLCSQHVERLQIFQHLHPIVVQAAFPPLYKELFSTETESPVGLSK
Assay: RORγt ThermoFluor assay (thermal shift, ligand binding affinity)
Settings: estimated from concentration response of thermal shift
Measured Attribute: Kd (nM)

[I] N#Cc1ccc(C(O)(c2cccc(Cl)c2)c2ccc3nc(C#N)c(-c4ccccc4)c(C#N)c3c2)cn1 (stereo not drawn)
[II] Cc1noc(C)c1C(O)(c1ccc(Cl)cc1)c1ccc2nc(Cl)c(-c3ccccc3)c(Cl)c2c1 (stereo not drawn)
[III] Cn1nncc1C(O)(c1ccc(Cl)cc1)c1ccc2nc(Cl)c(-c3ccccc3)c(Cl)c2c1 (stereo not drawn)
[IV] OC(c1ccccc1)(c1cccnc1)c1ccc2nc(C(F)(F)F)c(-c3ccccc3)c(C(F)(F)F)c2c1 (stereo not drawn)
[V] Cc1cc(C(O)(c2ccc(C(F)(F)F)nc2)c2cncn2C)cc2c(C#N)c(-c3cccc(F)c3)c(C#N)nc12 (single isomer, unassigned) [Example 176b]
Rank descending by Kd. The labels, placed in the requested order, form the answer.
V, II, III, I, IV
(V: 3400 nM, II: 1500 nM, III: 260 nM, I: 30 nM, IV: 4.2 nM)

----------
Target: human RORγt ligand binding domain (RORγt LBD) (Homo sapiens)
Construct: His-tag (N); TurboTEV protease cleavage site (ENLYFQG) (N)
Experiment: RORγt ThermoFluor assay (thermal shift, ligand binding affinity)
Details: estimated from concentration response of thermal shift
pKd: −log10 of the molar value.
Measured Attribute: pKd

1) CC(C)Oc1nc2ccc(C(O)(c3cccnc3)c3cccc(Cl)c3)cc2c(Cl)c1-c1ccccc1 (stereo not drawn) ... 5.85
2) Cn1cncc1C(O)(c1ccncc1)c1ccc2ncc(-c3ccccc3)c(Cl)c2c1 (stereo not drawn) ... 6.02
3) COCCCn1cncc1C(O)(c1ccc(Cl)cc1)c1ccc2nc(Cl)c(-c3ccccc3)c(Cl)c2c1 (stereo not drawn) ... 5.96

Value source: patent US9309222B2
